Test system: HS 578T breast
ASSAY METHOD TEXT: NCI-60 one-dose screen, 48 h (100 = growth as untreated, 0 = no growth, -100 = all killed)
APPLIED CONDITIONS: 10 µM unless noted
About 83,000 compounds went through this panel and 20% of them were active in at least one assay; those are over-represented in the sample as a whole.
OBSERVATION TYPE: growth (%)
Only the number, expressed in %, is required.

Worked examples, 7 molecules total:
| MOLECULE | OBSERVED RESULT |
| --- | --- |
| O=C(/C=C/C12c3ccccc3C(c3ccccc31)C1C(=O)NC(=O)C12)c1cccs1 (stereo not drawn) | 36.2 |
| O=C1c2ccccc2-c2c1c1ccncc1c(=O)n2CCCn1ccnc1 | 60.8 |
| COc1ccc(-c2cc(-c3ccc(Nc4nc(Nc5ccc(Cl)cc5)nc(Nc5ccc(Cl)cc5)n4)cc3)no2)cc1 | 90.2 |
| COC1CC(O)C2=C(CC3C(/C(C)=C\CC=C(C)C)CCC3(C)O2)C1=O (stereo not drawn) | 98.6 |
| CS(=O)(=O)c1ccc(/C(=N/NC(N)=S)c2ccc(F)cc2)cc1 | 102 |
| O=C(Cn1cc(CSc2nc3ccccc3o2)nn1)Nc1ccc([N+](=O)[O-])cc1 | 95.3 |
| Cc1ccc(OCCOCCOCCOCCOc2ccc(C)n(O)c2=S)c(=S)n1O | 44 |

Next molecule, growth to be filled in.
Query string: What does the data say about its growth? Entry: C=CCNc1ccc2c3c(cccc13)C(=O)N(CC=C)C2=O
Result string: 91.6

----------
Test system: MCF7 breast
ASSAY METHOD TEXT: NCI-60 one-dose screen, 48 h
APPLIED CONDITIONS: 10 µM unless noted
Compounds without any hit were thinned out: in the full panel of roughly 83,000, 20% have a hit. Activity calls are given as the source filed them. Rule for the calls: active = growth percent below 10; inactive = the rest.
// allowed return values: active, inactive

| COMPOUND | ASSIGNED LABEL |
| --- | --- |
| O=C(Nc1ncc(Cc2ccccc2Cl)s1)c1ccc2c(c1)OCCO2 | inactive |
| N#C/C(Sc1nc2sc3c(c2c(=O)n1Cc1ccccc1)CCCC3)=C1/SC=C(c2ccc(Cl)cc2)N1c1ccccc1 | inactive |

Query string: Could you check what this test reported for CN1/C(=C/C=C/c2n(Cc3ccc4ccccc4c3)c(Cl)c(Cl)[n+]2Cc2ccc3ccccc3c2)Oc2ccccc21 ?
Result string: active

Query string: Short answer needed: outcome of this test for Cn1ccnc1C(=O)/C=C/c1ccc(C(=O)Nc2ccccc2F)cc1 ?
Result string: inactive

Query string: Give the logged outcome of this assay for the following compound: O=S(=O)(Nc1ccc(Br)cc1)c1ccc(-c2cnc(C3CC3)o2)cc1
Result string: inactive

Query string: GET /call?item= O=C(O)c1cc2ccccc2s1 returns the recorded outcome of this test.
Result string: inactive

Query string: I'd appreciate the recorded outcome for CCN(CC)CCOc1ccc(/C(=C(\C)Cc2ccc(OC)cc2)c2ccc(O)cc2)cc1 from this test.
Result string: active

Query string: Per the assay record, what outcome was assigned to CCOC(=O)/C=C1\S/C(=N\Nc2cc(=O)[nH]c3ccc(OC)cc23)N(c2ccccc2)C1=O ?
Result string: inactive

Query string: Dear colleague, could you share the recorded outcome for C=CCOC(=O)C1=C(C)N(CC)C(=O)N(CC)C1c1c(Cl)n(C)c2ccccc12 (stereo not drawn) when you have a moment?
Result string: inactive

Query string: What did this assay record as the result for COc1cccc(NC(=O)c2sc3nc(C)c(C(=O)c4ccccc4)cc3c2N)c1 ?
Result string: inactive

Query string: GET /call?item= CC(=O)OCCOc1cc(Cl)c(Cl)cc1Cl returns the recorded outcome of this test.
Result string: inactive

Query string: Hi, do you know how Cc1ccc(OCCOCCOCCOCCOc2ccc(C)n(O)c2=S)c(=S)n1O came out in this test?
Result string: inactive

Query string: Given CCCCCCCCCCCCCC[n+]1ccc2c(C)c3c(c(C)c2c1)c1cc(O)ccc1n3CC , state the outcome it received in this test.
Result string: active

Query string: How did this test come out for O=c1cc(-c2nccc3c2[nH]c2ccccc23)c2cc(Cl)ccc2o1 ?
Result string: inactive

Query string: For COCCn1cc(-c2nc(-c3cc4cccnc4n3C)cs2)c2cc(OC)ccc21 , which call appears in the assay record?
Result string: active

Query string: Recorded call for N#C/C(=C/C=C/c1ccccc1)S(=O)c1ccccc1 (stereo not drawn) ?
Result string: active

Query string: I would be grateful if you could indicate the recorded call for O=C1C=CC2(O)OC(c3ccccc3)CC(=O)C2=C1O (stereo not drawn) .
Result string: inactive

Query string: For this compound, state the assay outcome: CC(=O)c1c(/C=C/c2ccc(C)cc2)c2ccccc2[nH]c1=O
Result string: inactive

Query string: # lookup: test call for CN(C)C(=S)NN=C(c1ccccn1)c1ccccn1
Result string: inactive

Query string: // return assay outcome for COc1ccc(/C=C/C(=O)c2ccc(-n3cc(CN4CCN(c5cc6c(cc5F)c(=O)c(C(=O)O)cn6C5CC5)CC4)nn3)cc2)cc1
Result string: inactive

Query string: Answer briefly: the call reported for COc1ccc(CNc2ccc3nc(CCC4CCCCC4)[nH]c3c2)cc1 in this assay.
Result string: inactive
